Target: ΔCTD_Reg1 (amino acids 1 to 546 of human Regnase-1) phosphorylation by IKKβ (Homo sapiens, UniProt Q5D1E8)
Construct: made in house; host or cells: Expi293 cells
Sequence (Q5D1E8 1-546): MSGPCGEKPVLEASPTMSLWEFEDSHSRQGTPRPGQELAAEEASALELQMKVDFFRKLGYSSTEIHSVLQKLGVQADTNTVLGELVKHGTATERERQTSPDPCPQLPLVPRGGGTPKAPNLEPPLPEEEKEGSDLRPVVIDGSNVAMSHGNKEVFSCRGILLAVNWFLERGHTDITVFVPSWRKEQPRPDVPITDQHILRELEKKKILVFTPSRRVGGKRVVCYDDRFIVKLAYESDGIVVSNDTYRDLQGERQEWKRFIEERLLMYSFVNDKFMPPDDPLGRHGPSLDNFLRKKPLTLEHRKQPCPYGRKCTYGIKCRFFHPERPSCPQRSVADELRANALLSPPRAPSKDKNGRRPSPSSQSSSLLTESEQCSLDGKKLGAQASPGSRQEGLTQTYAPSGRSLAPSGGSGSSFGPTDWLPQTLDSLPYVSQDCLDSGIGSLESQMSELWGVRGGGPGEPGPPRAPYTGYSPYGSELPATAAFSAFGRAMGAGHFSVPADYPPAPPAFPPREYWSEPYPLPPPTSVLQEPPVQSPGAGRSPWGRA
Experiment: Regnase-1 phosphorylation inhibition by compounds (AlphaScreen), IKKβ, CTD-deficient Regnase-1
Type: biochemical
Details: Table 11; 2 nM Regnase-1; AlphaScreen; read-out: 50% inhibition concentration, Regnase-1 phosphorylation, ΔCTD_Reg1, IKKβ
Residues, ends and D or L forms follow the SMILES beside them.
ENDPOINT NAME: IC50
Reply with a number, then the unit it belongs to.

Inquiry: Quick one: IC50 for CC[C@H](C)[C@@H]1NC(=O)[C@H](Cc2ccc(O)cc2)NC(=O)[C@H](C)N(C)C(=O)C[C@@H](C(=O)N2CCCC2)NC(=O)[C@H](CC(C)C)NC(=O)[C@H](CC(=O)O)NC(=O)CNC(=O)[C@H](Cc2ccccc2)NC(=O)[C@H](Cc2ccccc2)NC(=O)[C@H](CC(=O)O)NC(=O)[C@H](Cc2c[nH]c3ccccc23)NC1=O [PP4] (HELM PEPTIDE1{[meA].Y.I.W.D.F.F.G.D.L.D.[C1CCN([*:1])C1]}$PEPTIDE1,PEPTIDE1,1:R1-11:R3$$$V2.0) ?
Reply text: 8.3 µM
